# pEC50 per record follows
Molecular target: hGPR120 (Homo sapiens)
Assay: Measurement of Activity of GPR120 Agonist (Cell-Based Assay), Calcium 5 dye fluorescence
Conditions: CHO-K1 cells expressing Ga16 and hGPR120
pEC50: −log10 of the molar value.
quantity name: pEC50

>  <line notation>
CC(C)Oc1cncc(-c2cc(F)c(N3CCC(CC(=O)O)CC3)c(F)c2)n1

>  <measured value>
> 6.70

$$$$
>  <line notation>
O=C(O)CCCOc1ccc(-c2cccc(OCC3CCC3)n2)cc1F

>  <measured value>
5.70 to 6.70

$$$$
>  <line notation>
CC1(C)Cc2c(ccc(F)c2-c2cc(F)c(OCCCC(=O)O)c(F)c2)N1

>  <measured value>
5.70 to 6.70

$$$$
>  <line notation>
O=C(O)CC1CCN(c2c(F)cc(-n3ccc4cccc(Cl)c43)cc2F)CC1

>  <measured value>
4.70 to 5.70

$$$$
>  <line notation>
O=C(O)CCc1ccc2cc(-c3cccc(OC4CCC4)c3)ccc2c1

>  <measured value>
> 6.70

$$$$
>  <line notation>
CC(C)(CCCC(=O)O)c1c(F)cc(-c2cccnc2SC2CCC2)cc1F

>  <measured value>
5.70 to 6.70

$$$$
>  <line notation>
CC(C)OCc1cccc(-c2cc(F)c(N3CCC(CC(=O)O)CC3)c(F)c2)c1

>  <measured value>
5.70 to 6.70

$$$$
>  <line notation>
O=C(O)CC1CCN(c2ccc(-c3cccc(OC4CCC4)n3)cc2F)CC1

>  <measured value>
5.70 to 6.70

$$$$
>  <line notation>
Cc1cc(OC2CCC2)nc(-c2cc(F)c(OCCCC(=O)O)c(F)c2)n1

>  <measured value>
> 6.70

$$$$

----------
Biological target: hGPR120 (Homo sapiens)
Sequence (Q5NUL3 1-361): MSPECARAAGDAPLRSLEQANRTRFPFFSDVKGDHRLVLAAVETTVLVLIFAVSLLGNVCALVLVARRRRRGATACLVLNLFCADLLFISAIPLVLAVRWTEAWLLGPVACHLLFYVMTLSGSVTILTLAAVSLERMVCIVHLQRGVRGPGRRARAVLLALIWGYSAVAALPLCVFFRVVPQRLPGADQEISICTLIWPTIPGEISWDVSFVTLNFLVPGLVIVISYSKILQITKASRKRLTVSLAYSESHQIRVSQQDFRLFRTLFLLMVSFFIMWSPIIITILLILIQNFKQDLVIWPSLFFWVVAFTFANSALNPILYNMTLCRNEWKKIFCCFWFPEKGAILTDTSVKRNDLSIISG
Experiment: Measurement of Activity of GPR120 Agonist (Cell-Based Assay), Calcium 5 dye fluorescence
Details: CHO-K1 cells expressing Ga16 and hGPR120
pEC50: −log10 of the molar value.
quantity name: pEC50

>  <compound>
CCCOc1cccc(-c2cc(F)c(OCc3cc(O)no3)c(F)c2)n1

>  <measured on>
hGPR120 (Homo sapiens)

>  <quantity name>
pEC50

>  <measured value>
> 6.70

$$$$
>  <compound>
O=C(O)CCCOc1c(F)cc(-c2ccnc(OC3CCC3)n2)cc1F

>  <measured on>
hGPR120 (Homo sapiens)

>  <quantity name>
pEC50

>  <measured value>
> 6.70

$$$$
>  <compound>
O=C(O)CC1CCN(c2c(F)cc(-n3ncc4ccc(OC5CCC5)cc43)cc2F)CC1

>  <measured on>
hGPR120 (Homo sapiens)

>  <quantity name>
pEC50

>  <measured value>
5.70 to 6.70

$$$$
>  <compound>
O=C(O)CCC1CCc2cc(-c3cncc(OC4CCC4)n3)ccc2S1 (stereo not drawn)

>  <measured on>
hGPR120 (Homo sapiens)

>  <quantity name>
pEC50

>  <measured value>
5.70 to 6.70

$$$$
>  <compound>
COc1ccc(-c2cc(F)c(C(C)CCCC(=O)O)c(F)c2)c2c1OC(C)(C)C2 (stereo not drawn)

>  <measured on>
hGPR120 (Homo sapiens)

>  <quantity name>
pEC50

>  <measured value>
> 6.70

$$$$
>  <compound>
Oc1cc(CNc2c(F)cc(-c3cccnc3OC3CCCC3)cc2F)on1

>  <measured on>
hGPR120 (Homo sapiens)

>  <quantity name>
pEC50

>  <measured value>
> 6.70

$$$$
>  <compound>
COc1ccc(-c2ccc(C(F)(F)CCCC(=O)O)cc2)nc1OC1CCC1

>  <measured on>
hGPR120 (Homo sapiens)

>  <quantity name>
pEC50

>  <measured value>
> 6.70

$$$$
>  <compound>
CCCCc1cncc(-c2cc(F)c(N3CCC(CC(=O)O)CC3)c(F)c2)n1

>  <measured on>
hGPR120 (Homo sapiens)

>  <quantity name>
pEC50

>  <measured value>
> 6.70

$$$$
>  <compound>
O=C(O)CCCOc1c(F)cc(-c2ccc3cc[nH]c3c2)cc1F

>  <measured on>
hGPR120 (Homo sapiens)

>  <quantity name>
pEC50

>  <measured value>
4.70 to 5.70

$$$$
>  <compound>
CC(C)CCOc1ccnc(-c2cc(F)c(N3CCC(CC(=O)O)CC3)c(F)c2)n1

>  <measured on>
hGPR120 (Homo sapiens)

>  <quantity name>
pEC50

>  <measured value>
5.70 to 6.70

$$$$
>  <compound>
O=C(O)CCCC(F)(F)c1ccc(-c2cccnc2OC2CCC2)cc1

>  <measured on>
hGPR120 (Homo sapiens)

>  <quantity name>
pEC50

>  <measured value>
> 6.70

$$$$
>  <compound>
Cc1cc(OC2CCC2)nc(-c2cc(F)c(N3CCC(CC(=O)O)C3)c(F)c2)n1 (stereo not drawn)

>  <measured on>
hGPR120 (Homo sapiens)

>  <quantity name>
pEC50

>  <measured value>
5.70 to 6.70

$$$$
>  <compound>
CCCOc1cncc(-c2cc(F)c(N3CCC(CC(=O)O)CC3)c(F)c2)n1

>  <measured on>
hGPR120 (Homo sapiens)

>  <quantity name>
pEC50

>  <measured value>
> 6.70

$$$$
>  <compound>
COc1ccc(-c2cc(F)c(N(C)CCCC(=O)O)c(F)c2)nc1OCC1CC1

>  <measured on>
hGPR120 (Homo sapiens)

>  <quantity name>
pEC50

>  <measured value>
5.70 to 6.70

$$$$
>  <compound>
CCCOc1cccc(-c2cc(F)c(N3CCC(CC(=O)O)CC3)c(F)c2)c1OCCC

>  <measured on>
hGPR120 (Homo sapiens)

>  <quantity name>
pEC50

>  <measured value>
5.70 to 6.70

$$$$
>  <compound>
CCOc1cccc(-c2cc(F)c(N3CCC(CCC(=O)O)CC3)c(F)c2)n1

>  <measured on>
hGPR120 (Homo sapiens)

>  <quantity name>
pEC50

>  <measured value>
5.70 to 6.70

$$$$
>  <compound>
O=C(O)CC1CCC(c2ccc(-c3cccnc3OC3CCCC3)cc2F)CC1 (stereo not drawn)

>  <measured on>
hGPR120 (Homo sapiens)

>  <quantity name>
pEC50

>  <measured value>
5.70 to 6.70

$$$$
>  <compound>
COc1ccc(-c2cc(F)c(N3CCC(CC(=O)O)CC3)c(F)c2)nc1OCC1CC1

>  <measured on>
hGPR120 (Homo sapiens)

>  <quantity name>
pEC50

>  <measured value>
5.70 to 6.70

$$$$
>  <compound>
O=C(O)CC1CCN(c2c(F)cc(-c3ncnc4c3CCC4)cc2F)CC1

>  <measured on>
hGPR120 (Homo sapiens)

>  <quantity name>
pEC50

>  <measured value>
< 4.70

$$$$
>  <compound>
O=C(O)CCc1ccc2cc(-c3cccnc3OC3CCCC3)ccc2c1

>  <measured on>
hGPR120 (Homo sapiens)

>  <quantity name>
pEC50

>  <measured value>
> 6.70

$$$$
>  <compound>
CCCOc1cccc(-c2cc(F)c(N3CCC(CC(=O)O)CC3)c(F)c2)n1

>  <measured on>
hGPR120 (Homo sapiens)

>  <quantity name>
pEC50

>  <measured value>
> 6.70

$$$$
>  <compound>
Cc1c(OC2CCC2)cccc1-c1cc(F)c(N2CCC(CC(=O)O)CC2)c(F)c1

>  <measured on>
hGPR120 (Homo sapiens)

>  <quantity name>
pEC50

>  <measured value>
4.70 to 5.70

$$$$
>  <compound>
O=C(O)CC1CCN(c2c(F)cc(-n3ncc4ccc(OC5CCC5)cc43)cc2F)C1 (stereo not drawn)

>  <measured on>
hGPR120 (Homo sapiens)

>  <quantity name>
pEC50

>  <measured value>
5.70 to 6.70

$$$$
>  <compound>
CN(CCCC(=O)O)c1c(F)cc(-c2cccc(OC3CCC3)c2)cc1F

>  <measured on>
hGPR120 (Homo sapiens)

>  <quantity name>
pEC50

>  <measured value>
> 6.70

$$$$
>  <compound>
CN(CCCC(=O)O)c1c(F)cc(-c2cccc(OCC3CC3)c2)cc1F

>  <measured on>
hGPR120 (Homo sapiens)

>  <quantity name>
pEC50

>  <measured value>
> 6.70

$$$$
>  <compound>
COc1ccc(-c2cc(F)c(N(C)CCCC(=O)O)c(F)c2)nc1OC1CCC1

>  <measured on>
hGPR120 (Homo sapiens)

>  <quantity name>
pEC50

>  <measured value>
> 6.70

$$$$
>  <compound>
CC(CCCC(=O)O)c1c(F)cc(-c2cccnc2OC2CCC2)cc1F (stereo not drawn)

>  <measured on>
hGPR120 (Homo sapiens)

>  <quantity name>
pEC50

>  <measured value>
> 6.70

$$$$
>  <compound>
O=C(O)CCCOc1ccc(-c2cccnc2SC2CCC2)cc1F

>  <measured on>
hGPR120 (Homo sapiens)

>  <quantity name>
pEC50

>  <measured value>
> 6.70

$$$$
>  <compound>
CC1(C)Cc2cc(Cl)cc(-c3cc(F)c(OCCCC(=O)O)c(F)c3)c2O1

>  <measured on>
hGPR120 (Homo sapiens)

>  <quantity name>
pEC50

>  <measured value>
5.70 to 6.70

$$$$
>  <compound>
O=C(O)CC1CCN(c2c(F)cc(-c3cccc4c3OC(F)(F)O4)cc2F)CC1

>  <measured on>
hGPR120 (Homo sapiens)

>  <quantity name>
pEC50

>  <measured value>
5.70 to 6.70

$$$$
>  <compound>
O=C(O)CCCC(F)(F)c1ccc(-c2cc(F)cc(OC3CCC3)c2)cc1

>  <measured on>
hGPR120 (Homo sapiens)

>  <quantity name>
pEC50

>  <measured value>
> 6.70

$$$$
>  <compound>
CC(C)Sc1ncccc1-c1ccc2nc(CCC(=O)O)ccc2c1

>  <measured on>
hGPR120 (Homo sapiens)

>  <quantity name>
pEC50

>  <measured value>
5.70 to 6.70

$$$$
>  <compound>
O=C(O)CCCOc1c(F)cc(-c2cccc(OCC3CC3)c2)cc1Cl

>  <measured on>
hGPR120 (Homo sapiens)

>  <quantity name>
pEC50

>  <measured value>
> 6.70

$$$$
>  <compound>
O=C(O)CCC1CCc2cc(-c3cccc(OC4CCC4)c3)ccc2O1 (stereo not drawn)

>  <measured on>
hGPR120 (Homo sapiens)

>  <quantity name>
pEC50

>  <measured value>
> 6.70

$$$$
>  <compound>
O=C(O)CC1CCN(c2c(F)cc(-c3cccc(OC4CCSCC4)n3)cc2F)C1 (stereo not drawn)

>  <measured on>
hGPR120 (Homo sapiens)

>  <quantity name>
pEC50

>  <measured value>
5.70 to 6.70

$$$$
>  <compound>
CC(CCCC(=O)O)c1c(F)cc(-c2cccc(NC3CCCC3)c2)cc1F (stereo not drawn)

>  <measured on>
hGPR120 (Homo sapiens)

>  <quantity name>
pEC50

>  <measured value>
> 6.70

$$$$

The origin of these recorded values is patent US11261186B2.
